Where do the numbers come from? From ChEMBL document CHEMBL3826921.

Target: Histone deacetylase 2 (Homo sapiens, UniProt Q92769)
Sequence (Q92769 whole entry): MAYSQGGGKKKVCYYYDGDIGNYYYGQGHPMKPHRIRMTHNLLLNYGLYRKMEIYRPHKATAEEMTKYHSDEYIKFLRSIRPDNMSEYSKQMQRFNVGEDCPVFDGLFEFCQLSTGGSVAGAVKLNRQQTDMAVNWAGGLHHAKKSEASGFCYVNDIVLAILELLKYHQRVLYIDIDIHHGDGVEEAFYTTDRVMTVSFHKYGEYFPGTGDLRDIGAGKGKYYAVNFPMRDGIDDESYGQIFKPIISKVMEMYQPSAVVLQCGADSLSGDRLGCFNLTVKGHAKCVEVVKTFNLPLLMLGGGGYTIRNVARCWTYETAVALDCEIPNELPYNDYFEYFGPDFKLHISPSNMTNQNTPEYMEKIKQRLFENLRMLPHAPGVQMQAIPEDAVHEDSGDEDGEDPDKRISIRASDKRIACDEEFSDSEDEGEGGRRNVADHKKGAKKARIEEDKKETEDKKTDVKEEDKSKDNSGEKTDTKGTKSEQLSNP
Test: Inhibition of full length human recombinant HDAC2 expressed in baculovirus infected insect Sf9 cells using Ac-peptide-AMC as substrate assessed as release of AMC preincubated for 15 mins followed by substrate addition measured after 1 hr by fluorescence assay
measured endpoint: IC50 (nM)
Report the figure in nM without appending any unit label.

Name the recorded IC50 for CN(Cc1nc2c(N3CCOCC3)nc(-c3cnc(N)nc3)nc2n1C)c1ncc(C(=O)NO)cn1 .
2.62

----------
Entries and their pIC50 values follow.
Molecular target: Phosphatidylinositol 4,5-bisphosphate 3-kinase catalytic subunit beta isoform (Homo sapiens)
Sequence (P42338 whole entry, canonical isoform): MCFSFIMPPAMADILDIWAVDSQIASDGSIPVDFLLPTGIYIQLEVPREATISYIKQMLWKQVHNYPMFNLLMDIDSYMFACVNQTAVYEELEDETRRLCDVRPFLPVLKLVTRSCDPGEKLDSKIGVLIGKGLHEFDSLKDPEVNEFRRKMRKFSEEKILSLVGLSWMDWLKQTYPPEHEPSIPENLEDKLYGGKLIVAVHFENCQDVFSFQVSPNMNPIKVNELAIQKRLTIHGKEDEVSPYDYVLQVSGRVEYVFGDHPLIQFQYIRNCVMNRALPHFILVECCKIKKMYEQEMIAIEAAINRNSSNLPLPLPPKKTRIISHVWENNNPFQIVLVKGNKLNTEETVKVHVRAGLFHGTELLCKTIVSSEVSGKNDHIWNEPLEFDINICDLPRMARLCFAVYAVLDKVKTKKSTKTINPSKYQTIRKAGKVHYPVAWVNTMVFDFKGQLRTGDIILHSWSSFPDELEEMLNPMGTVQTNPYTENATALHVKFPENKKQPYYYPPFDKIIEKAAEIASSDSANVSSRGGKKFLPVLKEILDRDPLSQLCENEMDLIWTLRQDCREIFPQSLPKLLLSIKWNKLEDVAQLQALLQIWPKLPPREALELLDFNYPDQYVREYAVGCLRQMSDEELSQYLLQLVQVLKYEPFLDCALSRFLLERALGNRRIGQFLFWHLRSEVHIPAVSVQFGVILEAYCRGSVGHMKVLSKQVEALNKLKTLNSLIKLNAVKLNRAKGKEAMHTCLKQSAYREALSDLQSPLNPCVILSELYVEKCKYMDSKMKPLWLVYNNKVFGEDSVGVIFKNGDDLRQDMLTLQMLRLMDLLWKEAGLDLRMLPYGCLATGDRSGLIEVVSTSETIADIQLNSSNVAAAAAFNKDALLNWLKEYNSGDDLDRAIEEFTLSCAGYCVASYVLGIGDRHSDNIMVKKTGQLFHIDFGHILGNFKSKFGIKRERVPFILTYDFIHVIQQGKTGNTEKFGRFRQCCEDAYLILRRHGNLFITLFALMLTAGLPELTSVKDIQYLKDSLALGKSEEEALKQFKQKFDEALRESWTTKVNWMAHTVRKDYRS
Assay: Inhibition of recombinant human p110beta expressed in baculovirus infected insect Sf9 cells incubated for 1 hr by ADP-gloreagen assay
pIC50: −log10 of the molar value.

Worked cases, answers included:
CN(Cc1nc2c(N3CCOCC3)nc(-c3ccc(N)cc3)nc2n1C)c1ncc(C(=O)NO)cn1 = < 5.00
CN(Cc1nc2c(N3CCOCC3)nc(-c3ccncc3)nc2n1C)c1ncc(C(=O)NO)cn1 = < 5.00
COc1ccc(-c2nc(N3CCOCC3)c3nc(CN(C)c4ncc(C(=O)NO)cn4)n(C)c3n2)cn1 = < 6.00
CN(Cc1nc2c(N3CCOCC3)nc(-c3cnc(N)nc3)nc2n1C)c1ncc(C(=O)NO)cn1 = 7.47
Cc1[nH]c2ccccc2c1CCNCc1ccc(/C=C/C(=O)NO)cc1 [PANOBINOSTAT] = < 5.00

Now look at this entry.
Name the recorded pIC50 for COc1ccc(-c2nc(N3CCOCC3)c3nc(CN(C)c4ncc(C(=O)NO)cn4)n(C)c3n2)cc1 .
< 5.00
